molecular target: His-tagged KRAS G12D protein (Homo sapiens, UniProt P01116, G12D); test: KRAS G12D TR-FRET Assay; conditions: biotinylated KRPep-2d substrate, 10 μM GDP;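 note: europium anti-His antibody paired with streptavidin-d2 as FRET partners, initial 30 min incubation, then peptide 1 h and detection reagents 1 h, all at room temperature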
Sequence (P01116 1-188 isoform P01116-2 G12D): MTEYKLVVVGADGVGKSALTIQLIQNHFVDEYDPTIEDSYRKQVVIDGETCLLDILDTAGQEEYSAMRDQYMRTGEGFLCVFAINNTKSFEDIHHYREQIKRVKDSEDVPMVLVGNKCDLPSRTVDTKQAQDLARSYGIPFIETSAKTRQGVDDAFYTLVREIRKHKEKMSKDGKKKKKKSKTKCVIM
REPORTED_METRIC: IC50 (nM)

Recorded IC50, per entry:
COMPOUND	MEASURED_RESULT
CN1CC[C@@H](COc2nc(N3CCNCC3)c3cc(Cl)c(-c4cccc5sc(N)nc45)c(F)c3n2)C1	414
CN1CCC[C@H]1COc1nc(N2CCCNC(=O)C2)c2cc(Cl)c(-c3cccc4sc(N)nc34)c(F)c2n1	168
CN1CCC[C@H]1COc1nc(N2CCN[C@@H](CC#N)C2)c2cc(Cl)c(-c3cccc4sc(N)nc34)c(F)c2n1	1210

1: Nc1nc2c(-c3ccc4c(N5C[C@H]6CC[C@@H](C5)N6)nc(OC[C@@]56CCCN5C[C@H](F)C6)nc4c3F)ccc(F)c2s1
2: Nc1nc2c(-c3c(Cl)cc4c(N5CC6CNCC5C6)nc(OC[C@@]56CCCN5C[C@H](F)C6)nc4c3F)ccc(F)c2s1 (single isomer, unassigned) [Example 30]
3: C[C@@H](CN(C)C)Oc1nc(N2CCNCC2)c2cc(Cl)c(-c3cccc4sc(N)nc34)c(F)c2n1
Query block: Rank descending by IC50. Output spec: a listing of the labels in the requested order.
Result block: 3, 2, 1
(3: 159 nM, 2: 96 nM, 1: 12 nM)

P: Nc1nc2c(-c3c(Cl)cc4c(N5CCCNC(=O)C5)nc(OC[C@@]56CCCN5C[C@H](F)C6)nc4c3F)ccc(F)c2s1
Q: CN1CCC[C@H]1COc1nc(N2CCCNCC2)c2cc(Cl)c(-c3cccc4sc(N)nc34)c(F)c2n1
R: CN1CCC[C@H]1COc1nc(N2CCCNCCC2)c2cc(Cl)c(-c3cccc4sc(N)nc34)c(F)c2n1
Query block: Rank descending by IC50. Output spec: a listing of the labels in the requested order.
Result block: R, Q, P

I: Cc1c(-c2ccc(F)c3sc(N)nc23)ccc2c(N3C[C@H]4CC[C@@H](C3)N4)nc(OC[C@@]34CCCN3C[C@H](F)C4)nc12
II: Nc1nc2c(-c3c(Cl)cc4c(N5CCNC6CCCC65)nc(OC[C@@]56CCCN5C[C@H](F)C6)nc4c3F)ccc(F)c2s1 (stereo partly drawn)
III: CN1C[C@H](F)C[C@H]1COc1nc(N2CCNC(=O)CC2)c2cc(Cl)c(-c3ccc(F)c4sc(N)nc34)c(F)c2n1
Query block: Sort low-to-high on IC50, please. Output spec: a listing of the labels in the requested order.
Result block: I, II, III

P: Nc1nc2c(-c3c(Cl)cc4c(N5CC6CC5CCN6)nc(OC[C@@]56CCCN5C[C@H](F)C6)nc4c3F)ccc(F)c2s1 (stereo partly drawn)
Q: CCc1cc2c(N3CCNCC3)nc(OC[C@@H]3CCCN3C)nc2c(F)c1-c1cccc2sc(N)nc12
R: Nc1nc2c(-c3c(Cl)cc4c(N5C[C@@H]6CC[C@H]5CN6)nc(OC[C@@]56CCCN5C[C@H](F)C6)nc4c3F)ccc(F)c2s1
Query block: Sort low-to-high on IC50, please. Output spec: a listing of the labels in the requested order.
Result block: R, P, Q
(R: 6 nM, P: 11 nM, Q: 217 nM)

P: CN1C[C@H](F)C[C@H]1COc1nc(N2CCNCC2)c2cc(Cl)c(-c3cccc4sc(N)nc34)c(F)c2n1
Q: CCN1CCC(COc2nc(N3CCNCC3)c3cc(Cl)c(-c4cccc5sc(N)nc45)c(F)c3n2)CC1
R: Nc1nc2c(-c3c(Cl)cc4c(N5CCNCC5)nc(OC[C@@H]5CC(F)(F)CN5)nc4c3F)cccc2s1
Query block: Sort low-to-high on IC50, please. Output spec: a listing of the labels in the requested order.
Result block: P, Q, R
(P: 141 nM, Q: 473 nM, R: 687 nM)
